B1: TPR 5TU (parent)
chain: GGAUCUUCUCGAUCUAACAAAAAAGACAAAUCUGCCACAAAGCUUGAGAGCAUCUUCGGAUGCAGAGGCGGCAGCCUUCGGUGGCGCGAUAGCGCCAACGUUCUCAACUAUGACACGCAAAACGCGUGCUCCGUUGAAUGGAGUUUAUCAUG

- Variants of: B1
- assay_procedure: polymerase ribozyme fitness, log enrichment relative to wild type (log ratio); higher = more active; in vitro selection for triplet polymerase activity
Fewer inactive variants are shown than the library holds.
polymerase ribozyme fitness (log ratio) values, listed per item

- mutation_notation: "A24U A60U G83A"
  inequality_operator: "="
  polymerase ribozyme fitness (log ratio): -1.22
- mutation_notation: "C69U G84C C132G G143A"
  inequality_operator: "≤"
  polymerase ribozyme fitness (log ratio): -4.2
- mutation_notation: "U13G U77G U145G U151G"
  inequality_operator: "≤"
  polymerase ribozyme fitness (log ratio): -4.2
- mutation_notation: "G80C C85U A97C C99A G141U"
  inequality_operator: "="
  polymerase ribozyme fitness (log ratio): -3.93
- mutation_notation: "C99U A150C"
  inequality_operator: "≤"
  polymerase ribozyme fitness (log ratio): -4.2
- mutation_notation: "A52G U53A C57A A73U C87G C93A C132U A150C"
  inequality_operator: "≤"
  polymerase ribozyme fitness (log ratio): -4.2
- mutation_notation: "C14G U15C G84U"
  inequality_operator: "="
  polymerase ribozyme fitness (log ratio): -1.26
- mutation_notation: "C54A U55G G83A U102C C108G G126A"
  inequality_operator: "≤"
  polymerase ribozyme fitness (log ratio): -4.2
- mutation_notation: "A47U G50C C93A C96G"
  inequality_operator: "≤"
  polymerase ribozyme fitness (log ratio): -4.2
- mutation_notation: "C63U G70A G80C G83C C108G C116U"
  inequality_operator: "≤"
  polymerase ribozyme fitness (log ratio): -4.2
- mutation_notation: "C38G U56A G86U U130A"
  inequality_operator: "≤"
  polymerase ribozyme fitness (log ratio): -4.2
- mutation_notation: "G25U C99U A119C A120G"
  inequality_operator: "="
  polymerase ribozyme fitness (log ratio): -3.26
- mutation_notation: "U55A C69U G94C"
  inequality_operator: "="
  polymerase ribozyme fitness (log ratio): -3.36
- mutation_notation: "A52G U55A A91C A97U G112A A150U"
  inequality_operator: "≤"
  polymerase ribozyme fitness (log ratio): -4.2
- mutation_notation: "A47G A52U G68U C79A C93U C99A G141C A142G G143U"
  inequality_operator: "≤"
  polymerase ribozyme fitness (log ratio): -4.2
- mutation_notation: "A52G C57A G92U"
  inequality_operator: "="
  polymerase ribozyme fitness (log ratio): -0.753
- mutation_notation: "G25U G84A C131U G136A U144G"
  inequality_operator: "="
  polymerase ribozyme fitness (log ratio): -1.89
- mutation_notation: "A21U C36A G86A A98C"
  inequality_operator: "="
  polymerase ribozyme fitness (log ratio): -4.1
- mutation_notation: "C51U C96U"
  inequality_operator: "="
  polymerase ribozyme fitness (log ratio): -0.419
- mutation_notation: "A24U U53A U56G C57U A91U"
  inequality_operator: "≤"
  polymerase ribozyme fitness (log ratio): -4.2
- mutation_notation: "A41U G83C A110G G126A"
  inequality_operator: "≤"
  polymerase ribozyme fitness (log ratio): -4.2
- mutation_notation: "C38U G50A U77C C87G"
  inequality_operator: "≤"
  polymerase ribozyme fitness (log ratio): -4.2
